Cited source for all entries: paper PMC9090415

Readings of % inhibition apPOL 180' for the listed compounds
testedOn: P. falciparum apicoplast DNA polymerase (Pf-apPOL) (Plasmodium falciparum)
Sequence (Q8ILY1 entry or part of it): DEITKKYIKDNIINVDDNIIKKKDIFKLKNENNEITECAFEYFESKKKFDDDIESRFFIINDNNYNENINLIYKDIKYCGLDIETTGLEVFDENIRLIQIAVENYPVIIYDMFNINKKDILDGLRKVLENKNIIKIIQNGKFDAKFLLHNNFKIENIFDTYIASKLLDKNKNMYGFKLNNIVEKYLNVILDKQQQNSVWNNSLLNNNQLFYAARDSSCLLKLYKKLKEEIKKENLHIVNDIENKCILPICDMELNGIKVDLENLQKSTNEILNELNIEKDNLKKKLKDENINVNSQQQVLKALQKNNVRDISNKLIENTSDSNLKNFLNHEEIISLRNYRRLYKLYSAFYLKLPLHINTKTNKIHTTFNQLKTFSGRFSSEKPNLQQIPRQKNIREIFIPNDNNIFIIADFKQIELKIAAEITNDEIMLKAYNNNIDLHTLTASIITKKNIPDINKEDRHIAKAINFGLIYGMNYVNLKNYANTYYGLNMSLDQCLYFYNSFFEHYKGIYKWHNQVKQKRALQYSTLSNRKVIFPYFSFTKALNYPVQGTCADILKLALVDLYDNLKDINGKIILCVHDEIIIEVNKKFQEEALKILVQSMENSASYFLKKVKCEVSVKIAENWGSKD
protocolText: Fluorescence-based high-throughput DNA polymerase assay (molecular beacon), primary screen and dose-response;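 further: test concentration in µM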
Type: biochemical
conditionDescription: DRC-2; 180'; concentration 20
quantityName: % inhibition apPOL 180' (%)

entrySmiles	unitOfMeasurement	endpointValue
Cc1cccc(-c2nnc3ccc(NS(=O)(=O)c4ccc(C)c(C)c4)nn23)c1	%	40
COc1ccc(CNC(=O)Cn2nc3c(c2NC(=O)Cc2cccs2)CSC3)cc1	%	5
NC(=O)c1cc[n+](CC2=C(C(=O)[O-])N3C(=O)[C@@H](NC(=O)[C@@H](c4ccccc4)S(=O)(=O)[O-])[C@H]3SC2)cc1.[Na+]	%	75
Cc1cccc(CC(=O)N2CCc3c(nc4cc(-c5ccccc5)[nH]n4c3=O)C2)c1	%	63
